- System: male C57BL/6J mice
- testSummary: Glucose excursion during oral glucose tolerance test in mice
- Format: in vivo
- conditionContext: OGTT, AUC 0 to 120 min; B6, B1, A14 30 mg/kg, linagliptin 0.3 mg/kg, metformin 300 mg/kg, dosed 1 h before glucose
Reported % Reduction in 2-h glucose AUC vs. vehicle values for the following compounds.
Value expressed in %; do not type the unit.

Entry under review: O=C(Cc1ccc(OCCCC2CCN(c3ncc(Cl)cn3)CC2)cc1F)N1CC(CNC[C@H](O)[C@@H](O)[C@H](O)[C@H](O)CO)C1 . Reported % Reduction in 2-h glucose AUC vs. vehicle?
14

For CC#CCn1c(N2CCC[C@@H](N)C2)nc2c1c(=O)n(Cc1nc(C)c3ccccc3n1)c(=O)n2C [linagliptin, reference compound] then?
17

Same question for COc1ccc(CCCC(C)(C)C)c(N2CCC(COc3cccc([C@@H](CP(C)(=O)O)C4CC4)c3)CC2)c1 please.
21

And then COc1ccc(F)c([C@H]2CC[C@H](COc3cccc([C@H](C[P@](C)(=O)O)C4CC4)c3)CC2)c1 (single isomer, unassigned) , what is it?
14

Check CN(C)C(=N)N=C(N)N [metformin, reference compound] too.
26
